Entries annotated with measured Kd
Biological target: monomeric version of RAD51 (HumRadA22) (Pyrococcus furiosus)
Test: Fluorescence polarisation (FP) competition assay: displacement of fluorescein-labelled BRC4 repeat
Assay type: binding, archaeal RadA mutant with human Rad51 surface residues
Conditions: unstapled linear form, mock reaction with DMSO instead of linker plus TCEP; 100 nM HumRadA22, 10 nM BRC4-fluorescein; 20 mM CHES pH 9.5; KD calculated from IC50; single titration, three technical replicates per point; read-out: FP competition KD, nM, Unstapled
Description: We prepared all stapled peptides from small-scale bacterial cultures as GB1/C-His8 fusions and cyclised them with the DVT linker. […] The peptides were tested in a fluorescence polarisation (FP) assay monitoring the displacement of a fluorescently-labelled BRC4 repeat from a monomeric version of RAD51 (HumRadA22), as reported previously.[25] […] Fluorescence polarisation competition assay […]
Ends that are not written are not given here.
Return type: number; implicit unit nM.

Consider the reported Kd for these sequences:
### Prompt Please provide the recorded Kd for VNCSAFSGFSTASGKKLNVSTEALCKAVKLFSDIENIS (also: sidechain bridge or staple (positions not given here)) [GB1-SP13, GB1/C-His8 fusion peptide stapled with DVT; unstapled column is its linear mock control] , tested on monomeric version of RAD51 (HumRadA22) (Pyrococcus furiosus).
### Response 21

### Prompt Follow-up item: VNSSAFSGFSTASGKKLNVSCEALQKACKLFSDIECIS (also: sidechain bridge or staple (positions not given here)) [GB1-SP15, GB1/C-His8 fusion peptide stapled with DVT; unstapled column is its linear mock control]
### Response 15

### Prompt # iterate: VNSSAFSGFSTASGKKLNVSTEALCKAVKLFCDIENIS (also: sidechain bridge or staple (positions not given here)) [GB1-SP9, GB1/C-His8 fusion peptide stapled with DVT; unstapled column is its linear mock control]
### Response 57

### Prompt Now the same for VNSSAFSGFSTASGKKLNVSTCALQKAVCLFSDIENIS (also: sidechain bridge or staple (positions not given here)) [GB1-SP8, GB1/C-His8 fusion peptide stapled with DVT; unstapled column is its linear mock control]
### Response 45

Field: next sequence
### Prompt Notebook: pull reported Kd for monomeric version of RAD51 (HumRadA22) (Pyrococcus furiosus), entry SSACSGFSTASGKKLNVSTEACQKAVKLFSDIENIS (also: sidechain bridge or staple (positions not given here)) [GB1-SP12, GB1/C-His8 fusion peptide stapled with DVT; unstapled column is its linear mock control]
### Response 50

###

Biological target: monomeric version of RAD51 (HumRadA22) (Pyrococcus furiosus, UniProt O74036)
Test: Fluorescence polarisation (FP) competition assay: displacement of fluorescein-labelled BRC4 repeat
Type: binding, archaeal RadA mutant with human Rad51 surface residues
Details: stapled product (linker DVT or DVP as in Table 1); 100 nM HumRadA22, 10 nM BRC4-fluorescein; 20 mM CHES pH 9.5, 150 mM NaCl, 0.1% BSA, 0.1% Tween-20; KD calculated from IC50; single titration, three technical replicates per point; read-out: FP competition KD, nM, Stapled
Ends that are not written are not given here.
Readout kind: Kd (nM)
Express the result in nM but write the number alone.

### Prompt Identify the measured Kd of VNSSAFSGFSTASGKKLNVSTCALQKAVCLFSDIENIS (also: sidechain bridge or staple (positions not given here)) [GB1-SP8, GB1/C-His8 fusion peptide stapled with DVT; unstapled column is its linear mock control] for monomeric version of RAD51 (HumRadA22) (Pyrococcus furiosus, UniProt O74036).
### Response 29

Please examine the following record next.
### Prompt I'm curious: which Kd was measured for VNSSAFSGFSTASGKKLNVSCEALQKACKLFSDIENIS (also: sidechain bridge or staple (positions not given here)) [GB1-SP2, GB1/C-His8 fusion peptide stapled with DVT; unstapled column is its linear mock control] tested on monomeric version of RAD51 (HumRadA22) (Pyrococcus furiosus, UniProt O74036)?
### Response 15

###

Target: monomeric version of RAD51 (HumRadA22) (Pyrococcus furiosus, UniProt O74036)
Test: Fluorescence polarisation (FP) competition assay: displacement of fluorescein-labelled BRC4 repeat
Assay type: binding, archaeal RadA mutant with human Rad51 surface residues
Details: unstapled linear form, mock reaction with DMSO instead of linker plus TCEP; 100 nM HumRadA22, 10 nM BRC4-fluorescein; 20 mM CHES pH 9.5; KD calculated from IC50; single titration, three technical replicates per point; read-out: FP competition KD, nM, Unstapled
Ends that are not written are not given here.
Readout kind: Kd (nM)
Value expressed in nM; do not type the unit.

### Prompt Kd for VNSSAFSGFSTASGKKLNVSCEALQKACKLFSDIENIS (also: sidechain bridge or staple (positions not given here)) [GB1-SP2, GB1/C-His8 fusion peptide stapled with DVT; unstapled column is its linear mock control] ?
### Response 6

### Prompt What would you report for VNSSAFSGFSTASGKKLNVSTEALQKAVKLFSDIENIS [GB1-BRC8-2, linear BRC8-2 template as GB1/C-His8 fusion] ?
### Response 11

### Prompt Same read-out for SCFSTASGKKLNVSCEALQKAVKLFSDIENIS (also: sidechain bridge or staple (positions not given here)) [GB1-SP11, GB1/C-His8 fusion peptide stapled with DVT; unstapled column is its linear mock control] ?
### Response 29

Others:
### Prompt Kd lookup needed for VNSSAFSGFCTASGKKLNVSCEALQKAVKLFSDIENIS (also: sidechain bridge or staple (positions not given here)) [GB1-SP7, negative control GB1/C-His8 fusion peptide stapled with DVT; unstapled column is its linear mock control] , thanks.
### Response 39

### Prompt Could you do the same for ACGFSTASGKKLNVSCEALQKAVKLFSDIENIS (also: sidechain bridge or staple (positions not given here)) [GB1-SP10, GB1/C-His8 fusion peptide stapled with DVT; unstapled column is its linear mock control] , please?
### Response 35

###

Examples of sequences with documented Kd follow.
Target: monomeric version of RAD51 (HumRadA22) (Pyrococcus furiosus, UniProt O74036)
Assay: Fluorescence polarisation (FP) competition assay: displacement of fluorescein-labelled BRC4 repeat
Type: binding, archaeal RadA mutant with human Rad51 surface residues
Conditions: unstapled linear form, mock reaction with DMSO instead of linker plus TCEP; 100 nM HumRadA22, 10 nM BRC4-fluorescein; 20 mM CHES pH 9.5; KD calculated from IC50; single titration, three technical replicates per point; read-out: FP competition KD, nM, Unstapled
Ends that are not written are not given here.

Completed entries (count: 2):
### Prompt Value lookup for Kd; key = SCEALQKACKLFSDIENIS (also: sidechain bridge or staple (positions not given here)) [GB1-SP1, GB1/C-His8 fusion peptide stapled with DVT; unstapled column is its linear mock control]
### Response > 500 nM

### Prompt Okay, and ACSGFSTASGKKLNCS (also: sidechain bridge or staple (positions not given here)) [GB1-SP16, GB1/C-His8 fusion peptide stapled with DVT; unstapled column is its linear mock control] ?
### Response > 500 nM

From here, focus on the item given below.
### Prompt So what's the measured Kd for this one? VNCSAFSGFSTASGKKLCVS (also: sidechain bridge or staple (positions not given here)) [GB1-SP14, GB1/C-His8 fusion peptide stapled with DVT; unstapled column is its linear mock control]
### Response > 500 nM

Source listed as paper PMC10699557.
